Hello, the source for this data is patent US12291518B2, in case you need it.

biological target: THR beta-LBD (Homo sapiens); construct: THR beta-LBD (the final concentration is 0.5 nM) was added to the 384-well assay plate; purchased Invitrogen PV4686; assay: THR-β Coactivator Peptide Recruitment Assay (LanthaScreen TR-FRET); assay type: biochemical; details: TR-FRET coactivator recruitment, THR beta-LBD 0.5 nM
Sequence (P10828 217-461 limits assumed): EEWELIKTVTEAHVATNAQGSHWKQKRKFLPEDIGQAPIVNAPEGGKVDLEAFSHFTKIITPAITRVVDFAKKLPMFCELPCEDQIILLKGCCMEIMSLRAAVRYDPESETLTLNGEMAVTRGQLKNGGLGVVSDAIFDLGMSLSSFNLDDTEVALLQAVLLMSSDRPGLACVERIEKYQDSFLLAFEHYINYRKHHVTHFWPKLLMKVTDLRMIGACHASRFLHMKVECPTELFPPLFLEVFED
RECORDED ENDPOINT: THRβ Emax

Examples from the recorded data:
O=c1[nH]c(=O)n(-c2cc(Cl)c(Cc3cc(S(=O)(=O)N[C@H]4C[C@H](O)C4)c(O)cn3)c(Cl)c2)nc1C(F)F [Compound 156] = A (90~110)
CC1(C)CC(NS(=O)(=O)c2cc(Oc3c(Cl)cc(-n4nc(C(F)F)c(=O)[nH]c4=O)cc3Cl)ncc2O)C1 [Compound 122] = C (<75)
N#Cc1nn(-c2cc(Cl)c(Oc3cc(S(=O)(=O)NC4CC4)c(O)cn3)c(Cl)c2)c(=O)[nH]c1=O [Compound 114] = A (90~110)
O=c1[nH]c(=O)n(-c2cc(Cl)c(Oc3cc(S(=O)(=O)NC45CC(O)(C4)C5)c(O)cn3)c(Cl)c2)nc1C(F)F [Compound 142] = B (75~90)
O=C(N[C@H]1CCN(S(=O)(=O)c2cc(Oc3c(Cl)cc(-n4nc(C(F)F)c(=O)[nH]c4=O)cc3Cl)ccc2O)C1)C1CC1 [Compound 56] = C (<75)

Entry O=C(N1CCC1)C1(NS(=O)(=O)c2cc(Oc3c(Cl)cc(-n4nc(C(F)F)c(=O)[nH]c4=O)cc3Cl)ccc2O)CC1 [Compound 38] ; THRβ Emax = B (75~90)

Entry NC(=O)CNS(=O)(=O)c1cc(Oc2c(Cl)cc(-n3nc(C(F)F)c(=O)[nH]c3=O)cc2Cl)ccc1O [Compound 58] ; THRβ Emax = B (75~90)

Entry CN1C[C@H](NS(=O)(=O)c2cc(Oc3c(Cl)cc(-n4nc(C(F)F)c(=O)[nH]c4=O)cc3Cl)ccc2O)CC1=O (single isomer, unassigned) [Compound 35] ; THRβ Emax = C (<75)

Entry O=c1[nH]c(=O)n(-c2cc(Cl)c(Oc3cc(S(=O)(=O)NC4CC4)c(O)cn3)c(Cl)c2)nc1C(F)F [Compound 131] ; THRβ Emax = A (90~110)

Entry O=c1[nH]c(=O)n(-c2cc(Cl)c(Oc3cc(S(=O)(=O)N[C@@H]4CC[C@H]4O)c(O)cn3)c(Cl)c2)nc1C(F)F (stereo in doubt) [Compound 171] ; THRβ Emax = C (<75)

Entry O=c1[nH]c(=O)n(-c2cc(Cl)c(Oc3cc(S(=O)(=O)N[C@@H]4CCOC4)c(O)cn3)c(Cl)c2)nc1C(F)F [Compound 106] ; THRβ Emax = B (75~90)

Entry O=c1[nH]c(=O)n(-c2cc(Cl)c(Oc3ccc(O)c(S(=O)(=O)N4CC(O)C4)c3)c(Cl)c2)nc1C(F)F [Compound 40] ; THRβ Emax = B (75~90)
